Tested on: NLRP3 inflammasome pathway
assay.protocol: Human whole blood assay (LPS-ATP), IL-1β levels by AlphaLISA
Type: cell-based
protocol.conditions: LPS priming, ATP activation 1 h, IL-1β in plasma
measurement.label: IC50

INSERT INTO measurements (compound, result) VALUES
  ('CCOC(=O)C1(c2ccon2)CN=C(Nc2c3c(cc4c2CCC4)CCC3)O1 (single isomer, unassigned) [Example 21Bb]', '< 1000 nM'),
  ('O=C(OC1CCCC1)C1(c2ccon2)CN=C(Nc2c3c(cc4c2CCC4)CCC3)O1 (stereo not drawn)', '1000 to 10000 nM'),
  ('CCOC(=O)C1(c2cc(C(C)(C)O)on2)CN=C(Nc2c3c(cc4c2CCC4)CCC3)O1 (single isomer, unassigned)', '< 1000 nM');

---

Test system: NLRP3 inflammasome pathway
assay.protocol: Human whole blood assay (LPS-ATP), IL-1β levels by AlphaLISA
Type: cell-based
protocol.conditions: LPS priming, ATP activation 1 h, IL-1β in plasma
Here, each record is paired with measured IC50 data.
measurement.label: IC50

INSERT INTO results (molecule, result) VALUES
  ('CC(C)OC(=O)C1(c2ccon2)CN=C(Nc2c3c(cc4c2CCC4)CCC3)O1 (single isomer, unassigned)', '1 to 10 µM'),
  ('O=C(O)C1(c2nccs2)CN=C(Nc2c3c(cc4c2CCC4)CCC3)O1 (stereo not shown)', '1 to 10 µM'),
  ('O=C(O)C1(c2ccon2)CN=C(Nc2c3c(cc4c2CCC4)CCC3)O1 (stereo not shown)', '1 to 10 µM'),
  ('CC(C)(O)c1cc(C2(C(=O)O)CN=C(Nc3c4c(cc5c3CCC5)CCC4)O2)no1 (stereo not shown)', '1 to 10 µM');
